system: HCV replicon, genotype-1a variant with glutamine 30 changed to glutamate in the NS5A protein; test: microbe, parasite or virus in culture; type: cell-based, HCV genotype 1a; details: HCV replicon genotype 1a Q30E (Q→E) variant; test compound titrated with an NS5A-targeting compound (BMS-790052 fixed at 200 nM); ranking of synergist activity
Measured attribute: Fold-Synergistic 1a (Q30E)

# annotated cases, reported Fold-Synergistic 1a (Q30E) shown
# Entry smiles, Fold-Synergistic 1a (Q30E)
rows = [
    ("CC(C)(C)[C@H](NC(=O)[C@H]1CCC(=O)O1)c1nc(-c2ccc(-c3ccc(-c4c[nH]c([C@@H](NC(=O)[C@H]5CCC(=O)O5)C(C)(C)C)n4)cc3)cc2)c[nH]1", "<10 fold"),
    ("CC(C)(C)OC(=O)N1CCC(C(=O)N[C@H](c2nc(-c3ccc(-c4ccc(-c5c[nH]c([C@@H](NC(=O)C6CCN(C(=O)OC(C)(C)C)CC6)C(C)(C)C)n5)cc4)cc3)c[nH]2)C(C)(C)C)CC1", ">100 fold"),
]

Please find the next molecule below.
Reported Fold-Synergistic 1a (Q30E) for CC(C)(C)[C@H](NC(=O)C1(C2(O)CCC(F)(F)CC2)CC1)c1nc(-c2ccc(-c3ccc(-c4c[nH]c([C@@H](NC(=O)C5(C6(O)CCC(F)(F)CC6)CC5)C(C)(C)C)n4)cc3)cc2)c[nH]1 was >100 fold

====

system: HCV replicon, genotype-1a variant with glutamine 30 changed to glutamate in the NS5A protein; test: microbe, parasite or virus in culture; type: cell-based, HCV genotype 1a; settings: HCV replicon genotype 1a Q30E (Q→E) variant; test compound titrated with an NS5A-targeting compound (BMS-790052 fixed at 200 nM); ranking of synergist activity
Measured attribute: Fold-Synergistic 1a (Q30E)

Examples from the recorded data:
# Entry smiles, Measured attribute, Recorded result
data = [
    ("CC(=O)N(C)C1(C(=O)N[C@H](c2nc(-c3ccc(-c4ccc(-c5c[nH]c([C@@H](NC(=O)C6(N(C)C(C)=O)CC6)C(C)(C)C)n5)cc4)cc3)c[nH]2)C(C)(C)C)CC1", "Fold-Synergistic 1a (Q30E)", ">100 fold"),
    ("C[C@H](C(=O)OC(C)(C)C)[C@@H](C)C(=O)N[C@H](c1nc(-c2ccc(-c3ccc(-c4c[nH]c([C@@H](NC(=O)[C@H](C)[C@H](C)C(=O)OC(C)(C)C)C(C)(C)C)n4)cc3)cc2)c[nH]1)C(C)(C)C", "Fold-Synergistic 1a (Q30E)", ">100 fold"),
    ("CC(C)CC(=O)NC1(c2nc(-c3ccc(-c4ccc(-c5c[nH]c(C6(NC(=O)CC(C)C)CC6)n5)cc4)cc3)c[nH]2)CC1", "Fold-Synergistic 1a (Q30E)", "<10 fold"),
]

Sample CC(C)(C)[C@H](NC(=O)[C@H](O)C1CCCCC1)c1nc(-c2ccc(-c3ccc(-c4c[nH]c([C@@H](NC(=O)[C@H](O)C5CCCCC5)C(C)(C)C)n4)cc3)cc2)c[nH]1 ; Fold-Synergistic 1a (Q30E) observed: >100 fold

Lab note: Cc1cc(-c2ccc(-c3c[nH]c([C@@H](NC(=O)C4CC(F)(F)C4)C(C)C)n3)cc2)ccc1-c1c[nH]c([C@@H](NC(=O)C2CC(F)(F)C2)C(C)C)n1 gave Fold-Synergistic 1a (Q30E) of >100 fold
